Data credit: PubChem BioAssay (NCATS)

tested target: Cytochrome P450 2C9 (Homo sapiens) (UniProt P11712)
Sequence (P11712 whole entry, looked up): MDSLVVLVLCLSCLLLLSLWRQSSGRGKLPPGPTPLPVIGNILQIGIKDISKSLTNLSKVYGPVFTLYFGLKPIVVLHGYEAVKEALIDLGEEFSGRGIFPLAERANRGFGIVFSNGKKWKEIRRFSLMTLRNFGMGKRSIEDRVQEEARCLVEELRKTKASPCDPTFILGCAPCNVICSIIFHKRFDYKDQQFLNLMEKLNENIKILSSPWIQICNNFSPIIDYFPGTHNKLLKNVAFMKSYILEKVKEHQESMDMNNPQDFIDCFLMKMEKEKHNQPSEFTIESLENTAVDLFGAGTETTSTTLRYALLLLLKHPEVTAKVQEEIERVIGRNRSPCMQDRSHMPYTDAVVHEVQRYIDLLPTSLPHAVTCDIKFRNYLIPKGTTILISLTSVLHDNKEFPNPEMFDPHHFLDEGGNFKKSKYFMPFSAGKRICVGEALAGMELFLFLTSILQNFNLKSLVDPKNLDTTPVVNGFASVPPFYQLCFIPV
assay remarks: Cytochrome P450 family 2 subfamily C member 9 (CYP2C9) small molecule antagonists: luciferase biochemical (cell-free) qHTS assay (AID 1645842); also: nearly all actives have a fitted effect of over 55% in size
applied conditions: P450-Glo CYP2C9 enzyme assay, luciferin luminescence; series mostly up to 57.4 µM
Source text: National Center for Advancing Translational Sciences [NCATS] Assay Overview: Cytochrome P450 (CYP) enzymes are membrane-bound hemeproteins that play a key role in metabolism of drugs and xenobiotics. Assaying the effect of chemicals on CYP isozymes is useful to minimize the adverse drug reactions and toxicities in drug development process. […] The luciferin products formed are detected with a luciferin detection reagent, and the amount of light produced is proportional to CYP activity. […]
Inconclusive results are not listed. Calls of active or inactive are those of the source. Calls follow the shape of the dose curve; as a rule, active = well fitted inhibition curve with a large enough effect in the repeat runs; inconclusive = weak or mixed curves; inactive = no such curve, though single readings can be large or run the other way.
The reply should be one of these categories: active, inactive

1) C[C@H]1[C@H]2CC[C@H]3[C@@H]4CC=C5C[C@@H](N(C)C)CC[C@]5(C)[C@H]4CC[C@]23CN1C; inactive

*Q* In this assay, the call recorded for CC[N+](C)(CC)CCOC(=O)C(O)(c1ccccc1)C1CCCCC1 (stereo unspecified) was what?
*A* inactive

* * *

Test system: CP237
assay remarks: qHTS profiling for inhibitors of Plasmodium falciparum proliferation (AID 504749); also: nearly all actives have a fitted effect of over 60% in size
applied conditions: P. falciparum in erythrocytes, SYBR Green DNA, 72 h; series mostly up to 28.7 µM
Inconclusive results are not listed. Active and inactive are the calls of the source. The call rests on the fitted dose curve; in most records, active means well fitted inhibition curve with a large enough effect; inconclusive means small, poorly fitted or top-dose-only effect; inactive means flat fitted curve, though single readings scatter.
Response enum: active, inactive

1. NC(=O)n1c(O)c(C(=O)c2cccs2)c2cc(Cl)ccc21; inactive
2. CC(C)Cn1cnc2c1c(=O)n(C)c(=O)n2C; inactive
3. NS(=O)(=O)Cc1noc2ccccc12; inactive

*Q* For CCCCCCCCCCCCCC[N+](C)(C)Cc1ccccc1 , which call appears in the assay record?
*A* active

*Q* Which outcome did this test record for the compound O=C(Nc1cccc(C2=NCCN2)c1)Nc1cccc(C2=NCCN2)c1 ?
*A* active

*Q* Hi, sorry to bother you, what did the test record for CN(Cc1ccc(C(C)(C)C)cc1)Cc1cccc2ccccc12 ?
*A* inactive

* * *

Tested on: OV90
assay remarks: Primary qHTS to identify gynecologic anti-cancer compounds using libraries of approved drugs and bioactive compounds (AID 1345084); also: nearly all actives have a fitted effect of over 55% in size
applied conditions: Gynecologic cancer cell panel viability, ATPlite luminescence, 48 h; series mostly up to 57.5 µM
Results filed as inconclusive are left out. Active and inactive are the calls of the source. The call rests on the fitted dose curve; in most records, active means well fitted cell-killing curve with a large enough effect; inconclusive means small, poorly fitted or top-dose-only effect, or effect the other way; inactive means flat fitted curve, though single readings scatter.
Please reply with one of these outcomes: t (active), f (inactive)

Take a look at these entries with their results.
1) CO[C@]12C[C@@H](COC(=O)c3cncc(Br)c3)CN(C)[C@@H]1Cc1cn(C)c3cccc2c13; f
2) COc1cc(NS(=O)(=O)c2ccc(N)cc2)ncn1; f
3) CCCCNC(=O)NS(=O)(=O)c1ccc(N)cc1; f
4) CC1(C)OC[C@@H]2O[C@@]3(C(=O)O)OC(C)(C)O[C@H]3[C@@H]2O1; f
5) C[C@H]1[C@H]2CC[C@H]3[C@@H]4CC=C5C[C@@H](N(C)C)CC[C@]5(C)[C@H]4CC[C@]23CN1C; t
6) CC(C)[C@@H]1CC[C@@H](C)CC1=O; f
7) C=C1c2cccc(O)c2C(O)=C2C(=O)[C@]3(O)C(O)=C(C(N)=O)C(=O)[C@@H](N(C)C)[C@@H]3[C@@H](O)[C@H]12; f
8) O=C1[C@H](CC[C@H](O)c2ccc(F)cc2)[C@@H](c2ccc(O)cc2)N1c1ccc(F)cc1; f

With those in mind, consider the next compound.
*Q* Which outcome was assigned to C[C@@H](O)[C@H]1C(=O)N2C(C(=O)O)=C([C@H]3CCCO3)S[C@H]12 in this test?
*A* f
